# Test system: Staphylococcus aureus
# assay explanation: Antibacterial activity against gentamicin-resistant Staphylococcus aureus clinical isolate after 18 hrs by agar dilution method
# Format: functional
MIC90 values by entry
The response must be a number in µg/mL with no trailing unit.

Examples with their reported MIC90 follow.
molecule="CCN[C@@H]1C[C@H](N)[C@@H](O[C@H]2OC(CN)=CC[C@H]2N)[C@H](O)[C@H]1O[C@H]1OC[C@](C)(O)[C@H](NC)[C@H]1O [NETILMICIN]" experimental_readout=MIC90 quantitative_readout=128
molecule="CCN[C@@H]1C[C@H](N)[C@@H](O[C@@H]2OC(C(C)N)=CC[C@@H]2N)[C@H](O)[C@H]1O[C@H]1OC[C@](C)(O)[C@H](NC)[C@H]1O (some centres undefined) [VERTILMICIN]" experimental_readout=MIC90 quantitative_readout=16

Please find the next molecule below.
Query string: Entry under review: NCC[C@H](O)C(=O)N[C@@H]1C[C@H](N)[C@@H](O[C@H]2O[C@H](CN)[C@@H](O)[C@H](O)[C@H]2O)[C@H](O)[C@H]1O[C@H]1O[C@H](CO)[C@@H](O)[C@H](N)[C@H]1O [AMIKACIN] . Reported MIC90?
Result string: 128

====

# System: Staphylococcus aureus
# assay explanation: Antibacterial activity against non-gentamicin-resistant Staphylococcus aureus clinical isolate assessed as susceptible isolates after 18 hrs by agar dilution method
# Assay type: functional
experimental readout: Activity (%)
API: value field is a number in %; no unit string.

molecule="CN[C@@H]1[C@@H](O)[C@@H](O[C@@H]2[C@@H](O)[C@H](O[C@@H]3OC(C(C)N)=CC[C@@H]3N)[C@@H](N)C[C@H]2N)OC[C@]1(C)O (some centres undefined)" quantitative_readout=94.8
molecule="CCN[C@@H]1C[C@H](N)[C@@H](O[C@@H]2OC(C(C)N)=CC[C@@H]2N)[C@H](O)[C@H]1O[C@H]1OC[C@](C)(O)[C@H](NC)[C@H]1O (some centres undefined)" quantitative_readout=94.8
molecule=NCC[C@H](O)C(=O)N[C@@H]1C[C@H](N)[C@@H](O[C@H]2O[C@H](CN)[C@@H](O)[C@H](O)[C@H]2O)[C@H](O)[C@H]1O[C@H]1O[C@H](CO)[C@@H](O)[C@H](N)[C@H]1O quantitative_readout=100

Switching to the query record.
Query string: For CCN[C@@H]1C[C@H](N)[C@@H](O[C@H]2OC(CN)=CC[C@H]2N)[C@H](O)[C@H]1O[C@H]1OC[C@](C)(O)[C@H](NC)[C@H]1O , what is its reported Activity?
Result string: 88.3
